# credit: patent US6753337B2

measurement.target: TNF-α converting enzyme (TACE) (Homo sapiens, UniProt P78536)
Sequence (P78536 215-824): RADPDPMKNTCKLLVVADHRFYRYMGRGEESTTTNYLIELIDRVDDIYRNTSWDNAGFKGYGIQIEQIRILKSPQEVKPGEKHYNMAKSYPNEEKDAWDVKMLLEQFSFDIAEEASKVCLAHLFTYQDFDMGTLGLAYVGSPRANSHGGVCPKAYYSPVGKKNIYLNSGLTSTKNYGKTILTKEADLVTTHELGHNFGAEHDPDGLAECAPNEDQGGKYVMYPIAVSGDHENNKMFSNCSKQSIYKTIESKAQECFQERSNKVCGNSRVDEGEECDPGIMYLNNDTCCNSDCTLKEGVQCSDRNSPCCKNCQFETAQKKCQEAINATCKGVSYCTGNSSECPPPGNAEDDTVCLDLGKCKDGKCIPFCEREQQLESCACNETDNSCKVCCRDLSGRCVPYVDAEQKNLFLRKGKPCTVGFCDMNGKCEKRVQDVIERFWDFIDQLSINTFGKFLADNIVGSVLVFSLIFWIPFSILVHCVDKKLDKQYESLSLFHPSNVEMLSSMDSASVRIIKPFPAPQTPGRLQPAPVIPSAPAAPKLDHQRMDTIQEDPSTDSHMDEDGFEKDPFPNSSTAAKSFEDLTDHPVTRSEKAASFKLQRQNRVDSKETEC
Where a name gives a salt, the structure may show the parent alone.
Returns: string. Value is 1 if measured IC50 is below 100 nM, and 0 if it is greater than or equal to it.

{"compound": "CC#CCOc1ccc(S(=O)(=O)CC2(C(=O)NO)CCN(C(=O)N3CCOCC3)CC2)cc1 [Example 55]", "group.label": 1}
{"compound": "CC#CCOc1ccc(S(=O)(=O)C2(C(=O)NO)CCNCC2)cc1 [Example 76, hydrochloride]", "group.label": 0}
{"compound": "CC#CCOc1ccc([S+]([O-])C2(C(=O)NO)CCNCC2)cc1 (centres unmarked) [Example 81, hydrochloride]", "group.label": 0}
{"compound": "CC#CCOc1ccc(S(=O)(=O)CC2(C(=O)NO)CCN(C(=O)Oc3ccc(OC)cc3)CC2)cc1 [Example 58]", "group.label": 1}
{"compound": "CC#CCOc1ccc(S(=O)(=O)CC2(C(=O)NO)CCN(CC)CC2)cc1 [Example 46]", "group.label": 0}
{"compound": "CC#CCOc1ccc(S(=O)(=O)C2(C(=O)NO)CCN(Cc3ccc(Br)cc3)CC2)cc1 [Example 1]", "group.label": 1}
{"compound": "CC#CCOc1ccc(S(=O)(=O)CC2(C(=O)NO)CCN(C(=O)OCc3ccccc3)CC2)cc1 [Example 40]", "group.label": 1}
{"compound": "CCCCCC#CCOc1ccc(S(=O)(=O)C2(C(=O)NO)CCN(Cc3ccc(Br)cc3)CC2)cc1 [Example 6]", "group.label": 0}

====

System: THP-1 cells
measurement.protocol: Human monocytic THP-1 cell differentiation assay for soluble proteins (THP-1 soluble protein assay)
Format: cell-based
assay.setup: LPS-stimulated THP-1 cells, soluble protein not given
Listed here are compounds together with their documented inhibition at 3 µM.

{"molecular.string": "CC#CCOc1ccc(S(=O)(=O)C2(C(=O)NO)CCN(C(C)C)CC2)cc1", "measurement.target": "THP-1 cells", "inhibition at 3 µM [%]": 5}
{"molecular.string": "O=C(NO)C1(S(=O)(=O)c2ccc(OCC#CCN3CCOCC3)cc2)CCN(Cc2ccc(Br)cc2)CC1", "measurement.target": "THP-1 cells", "inhibition at 3 µM [%]": 69}
{"molecular.string": "CC#CCOc1ccc(S(=O)(=O)C2(C(=O)NO)CCN(Cc3ccc(F)cc3)CC2)cc1", "measurement.target": "THP-1 cells", "inhibition at 3 µM [%]": 21}

====

Listed here are compounds together with their documented pIC50.
measurement.target: MMP-1 (Homo sapiens, UniProt P03956)
Sequence (P03956 100-469): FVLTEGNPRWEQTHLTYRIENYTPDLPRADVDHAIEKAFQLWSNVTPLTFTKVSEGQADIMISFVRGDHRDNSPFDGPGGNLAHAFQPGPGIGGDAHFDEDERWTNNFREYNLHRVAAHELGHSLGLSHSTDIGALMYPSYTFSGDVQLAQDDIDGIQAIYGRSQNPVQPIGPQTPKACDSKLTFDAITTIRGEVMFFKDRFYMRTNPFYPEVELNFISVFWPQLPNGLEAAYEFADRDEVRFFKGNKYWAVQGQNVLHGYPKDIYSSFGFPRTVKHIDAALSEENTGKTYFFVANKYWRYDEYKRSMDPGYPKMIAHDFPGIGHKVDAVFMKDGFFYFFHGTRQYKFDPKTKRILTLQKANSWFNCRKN
measurement.protocol: MMP-1 inhibition (thiopeptide or fluorescent peptide substrate)
Assay type: biochemical
assay.setup: read-out: MMP1 IC50
pIC50: −log10 of the molar value.
observed.property: pIC50

{"molecular.string": "CC#CCOc1ccc(S(=O)(=O)CC2(C(=O)NO)CCN(C(=O)C(C)(CO)CO)CC2)cc1", "measured": "~5.00"}
{"molecular.string": "CC#CCOc1ccc(S(=O)(=O)C2(C(=O)NO)CCN(C(CC)CC)CC2)cc1", "measured": "< 5.00"}
{"molecular.string": "CC#CCOc1ccc(S(=O)(=O)C2(C(=O)NO)CCN(C(C)C)CC2)cc1", "measured": "< 5.00"}

====

measurement.target: UniProtKB P03956
measurement.protocol: MMP-1 inhibition (thiopeptide or fluorescent peptide substrate)
Assay type: biochemical
assay.setup: read-out: MMP1 IC50
pIC50: −log10 of the molar value.

{"molecule": "CC#CCOc1ccc([S+]([O-])CC2(C(=O)NO)CCN(C(=O)OC(C)(C)C)CC2)cc1 (stereo not shown) [Example 32]", "pIC50": "< 5.00"}
{"molecule": "CC#CCOc1cccc(S(=O)(=O)C2(C(=O)NO)CCN(Cc3ccccc3)CC2)c1 [Example 21]", "pIC50": "< 5.00"}
{"molecule": "CC#CCOc1ccc(S(=O)(=O)CC2(C(=O)NO)CCN(C(=O)NC(C)(C)C)CC2)cc1 [Example 38]", "pIC50": "~5.00"}
{"molecule": "CC#CCOc1ccc(S(=O)(=O)CC2(C(=O)NO)CCN(C(=O)C3(C)COC(C)(C)OC3)CC2)cc1 [Example 42]", "pIC50": "~5.00"}
